Reported cytotoxicity at 70.5 h by item:
protocol.description: Human HepG2 cell viability assay in 384 well format
Format: toxicity, cell-based
Parameters: dose 125 nL, time 70.5 hour; concentration not given beside the values
assay.conditions: HepG2 cells, read-out: Inhibition
# value in %; strip the unit string

Illustrative cases are given below, each with its answer.
CC(=O)Nc1nc(C(=O)NCc2ccc(N3CCOCC3)nc2)cs1 | 14.9
CCOCC1CC2(CCN(C(=O)c3cscn3)CC2)CO1 (stereo unspecified) | -9.28
CN(C)c1nc(CNC(=O)NC2COc3ccccc32)cs1 (stereo unspecified) | 2.4
c1ccc(Cn2ccnc2CNC2CCCOc3ccccc32)cc1 (stereo unspecified) | -6.62
CNCc1n[nH]c(=O)n1-c1ccccc1Oc1ccccc1 | 1.39
CN(Cc1ccco1)C[C@@H]1OC[C@H]2CN(Cc3nccs3)CC[C@H]21 | 4.46
CSC1(CNC(=O)c2cccc(-n3cccn3)c2)CCOCC1 | 1.71
c1cnn(Cc2nnc(C3CCN(C4CCOCC4)CC3)n2C2CC2)c1 | -10.6
Cn1cc(CN2CCc3ccc(=O)n(Cc4ccncc4)c3CC2)cn1 | -7
NC(=O)C1CN(C(=O)c2ccc(F)cc2)CCN1CCc1ccccc1 (stereo unspecified) | -4.6

Alright, here's another molecule for you.
Would you kindly share the measured cytotoxicity at 70.5 h for CC(C)=CCC1(CO)CCCN(S(C)(=O)=O)C1 (stereo unspecified) ?
1.79
